Procedure Summary: Cytotoxicity assay, THP-1 cells (CellTiter 96 AQueous One)
Test Settings: human
Endpoint Name: CC50 at 24 h (µM)
One number for each entry, in µM.

>>> observed_value("N#Cc1ccc(O)cc1F [Fragment F22, 2-Fluoro-4-hydroxybenzonitrile]")
677
>>> observed_value("O=C(O)c1ccc(-c2ccsc2)cc1 [Fragment F26, 4-(3-Thienyl)benzoic acid]")
978
>>> observed_value("Cc1cc(C(=O)O)c(C)n1Cc1cccs1 [Fragment F16]")
724
>>> observed_value("O=C(O)c1ccc(-c2cccs2)s1 [Fragment F20, [2,2′-Bithiophene]-5-carboxylic acid]")
974
>>> observed_value("Cc1ncc(C(N)=S)[nH]1 [Fragment F3, 2-Methyl-1H-imidazole-4-carbothioamide]")
850
>>> observed_value("Oc1noc2cc(Cl)ccc12 [Fragment F27, 6-Chlorobenzo[d]isoxazol-3-ol]")
777

Quick batch: CC50 at 24 h for everything below.
1. Cc1n[nH]c(C)c1Oc1ccc(Cl)cc1 [Fragment F15]
2. CCOC(=O)c1c(N)sc(C)c1-c1ccccc1 [Fragment F19]
3. Cc1ccc(-c2cc(C(=O)O)c(C)o2)cc1 [Fragment F24]
4. Cc1oc(-c2ccc(Cl)cc2)cc1C(=O)N(C)C [Fragment F8]
5. CNCc1ccccc1Oc1ccccc1 [Fragment F23, Methyl[(2-phenoxyphenyl)methyl]amine]
6. CSc1cc(-c2ccc(F)cc2)n[nH]1 [Fragment F11]

Reply:
1: 345; 2: 247; 3: 887; 4: 234; 5: 976; 6: 765

Quick batch: CC50 at 24 h for everything below.
1. O=C(O)c1ccc(-c2ccccc2)s1 [Fragment F10, 5-Phenylthiophene-2-carboxylic acid]
2. OCc1csc(-c2ccc(C(F)(F)F)cc2)n1 [Fragment F28]
3. O=C(O)c1csc2ccc(Cl)cc12 [Fragment F25]

Reply:
[544, 940, 876]

Query: Entry Oc1ccc(Oc2ccccc2)cc1 [Fragment F29, 4-Phenoxyphenol] : reported CC50 at 24 h = ?
Reply: 145

* * *

What MIC50 was measured for each of the following?
Tested on: M. tuberculosis H37Rv
Procedure Summary: M. tuberculosis growth inhibition dose-response (MIC50), turbidity readout
Format: cell-based, Mycobacterium tuberculosis
Test Settings: Mycobacterium tuberculosis, 240 h; H37Rv, 10 days; read-out: Antibacterial activity (MIC50) M. tuberculosis
One number for each entry, in µM.

In the examples that follow, each entry is paired with its recorded MIC50.
>>> observed_value("Cc1n[nH]c(C)c1Oc1ccc(Cl)cc1")
235
>>> observed_value("Cc1ncc(C(N)=S)[nH]1 [Fragment F3, 2-Methyl-1H-imidazole-4-carbothioamide]")
105

Quick batch: MIC50 for everything below.
1. N#Cc1ccc(O)cc1F [Fragment F22, 2-Fluoro-4-hydroxybenzonitrile]
2. Nc1ccc2oc3c(c2c1)CCCC3
3. O=C(O)c1ccc(-c2cccs2)s1 [Fragment F20, [2,2′-Bithiophene]-5-carboxylic acid]
4. CNCc1ccccc1Oc1ccccc1 [Fragment F23, Methyl[(2-phenoxyphenyl)methyl]amine]
5. Cc1ccc(-c2cc(C(=O)O)c(C)o2)cc1
6. CCOC(=O)c1c(N)sc(C)c1-c1ccccc1
7. O=C(O)c1ccc(-c2ccccc2)s1

Reply:
[300, 245, 271, 305, 316, 270, 186]

* * *

Procedure Summary: Pharmacokinetic study in uninfected CD-1 mice
Test Settings: CD-1, mouse, plasma, po, 100 mg/kg, F (oral bioavailability), Oral 100 mg/kg in CMC (suspension)
Endpoint Name: bioavailability (%)
Numbers only, in %.

Query: Entry "O=C(O)CCc1c[nH]c2ccccc12" : reported bioavailability = ?
Reply: 30.8

* * *

What log reduction at 1000 µM was measured for each of the following?
Tested on: M. tuberculosis H37Rv
Procedure Summary: Bactericidal activity, CFU enumeration on agar after treatment
Assay type: cell-based, Mycobacterium tuberculosis
Test Settings: Mycobacterium tuberculosis, H37RV; M. tuberculosis; 1 mM; log CFU/ml reduction from initial inoculum; read-out: Bactericidal activity (log reduction) at 1 mM

In the examples that follow, each entry is paired with its recorded log reduction at 1000 µM.
>>> observed_value("CNCc1ccccc1Oc1ccccc1 [Fragment F23, Methyl[(2-phenoxyphenyl)methyl]amine]")
1.22
>>> observed_value("COC(=O)c1cc2ccccc2cn1 [Fragment F4, Methyl isoquinoline-3-carboxylate]")
1.98
>>> observed_value("O=c1cc(C(F)(F)F)c2ccc(O)cc2o1 [Fragment F2]")
1.1
>>> observed_value("CSc1cc(-c2ccc(F)cc2)n[nH]1 [Fragment F11]")
3.06
>>> observed_value("O=C(O)CCc1c[nH]c2ccccc12 [Fragment F1]")
1.76

Quick batch: log reduction at 1000 µM for everything below.
1. CCOC(=O)c1c(N)sc(C)c1-c1ccccc1 [Fragment F19]
2. Cc1cc(C(=O)O)c(C)n1Cc1cccs1 [Fragment F16]
3. O=C(O)c1ccc(-c2cccs2)s1 [Fragment F20, [2,2′-Bithiophene]-5-carboxylic acid]
4. Cc1cc2cc(N)ccc2[nH]1 [Fragment F21, 2-Methyl-1H-indol-5-amine]

Reply:
1.98
1.89
1.98
2.5

* * *

Procedure Summary: Pharmacokinetic study in uninfected CD-1 mice
Test Settings: CD-1, mouse, plasma, po, 100 mg/kg, Cmax, Oral 100 mg/kg in CMC (suspension), Ave +/- SD, n=3
Endpoint Name: Cmax (µg/mL)
Give bare numbers, in µg/mL.

Query: Entry "O=C(O)CCc1c[nH]c2ccccc12" : reported Cmax = ?
Reply: 67

* * *

Procedure Summary: Pharmacokinetic study in uninfected CD-1 mice
Test Settings: CD-1, mouse, plasma, po, 100 mg/kg, AUC[0-24], Oral 100 mg/kg in CMC (suspension), Ave +/- SD, n=3
Endpoint Name: AUC(0-t)
Write the quantity with the unit trailing the number.

Query: Entry "O=C(O)CCc1c[nH]c2ccccc12" : reported AUC(0-t) = ?
Reply: 442 µg·h/mL

* * *

What CC50 at 24 h was measured for each of the following?
Procedure Summary: Cytotoxicity assay, HepG2 cells (CellTiter 96 AQueous One)
Test Settings: human, HepG2 cells
Numbers only, in µM.

>>> observed_value("Cc1cc2cc(N)ccc2[nH]1 [Fragment F21, 2-Methyl-1H-indol-5-amine]")
387
>>> observed_value("O=c1cc(C(F)(F)F)c2ccc(O)cc2o1 [Fragment F2]")
987
>>> observed_value("Cc1ccc(-c2cc(C(=O)O)c(C)o2)cc1 [Fragment F24]")
984

Now look at this entry.
Query: Entry Cc1n[nH]c(C)c1Oc1ccc(Cl)cc1 [Fragment F15] : reported CC50 at 24 h = ?
Reply: 676

* * *

What CC50 at 24 h was measured for each of the following?
Procedure Summary: Cytotoxicity assay, THP-1 cells (CellTiter 96 AQueous One)
Test Settings: human
One number for each entry, in µM.

In the examples that follow, each entry is paired with its recorded CC50 at 24 h.
>>> observed_value("O=c1cc(C(F)(F)F)c2ccc(O)cc2o1")
879
>>> observed_value("Clc1ccc2nc(N3CCCNCC3)sc2c1")
124
>>> observed_value("NCc1cccc(N2CCCCC2)n1")
489

Now look at this entry.
Query: Entry "Cc1cc2cc(N)ccc2[nH]1" : reported CC50 at 24 h = ?
Reply: 409

* * *

Procedure Summary: Pharmacokinetic study in uninfected CD-1 mice
Test Settings: CD-1, mouse, plasma, po, 100 mg/kg, AUC[0-8], Oral 100 mg/kg in CMC (suspension), Ave +/- SD, n=3
Endpoint Name: AUC(0-t) (µg·h/mL)
One number for each entry, in µg·h/mL.

Query: Entry "O=C(O)CCc1c[nH]c2ccccc12" : reported AUC(0-t) = ?
Reply: 315

* * *

What log reduction at 1000 µM was measured for each of the following?
Tested on: M. tuberculosis H37Rv
Procedure Summary: Bactericidal activity, CFU enumeration on agar after treatment
Format: cell-based, Mycobacterium tuberculosis
Test Settings: Mycobacterium tuberculosis, H37RV; M. tuberculosis; 1 mM; log CFU/ml reduction from initial inoculum; read-out: Bactericidal activity (log reduction) at 1 mM
Give bare numbers.

In the examples that follow, each entry is paired with its recorded log reduction at 1000 µM.
>>> observed_value("Oc1ccc(Oc2ccccc2)cc1")
1.09
>>> observed_value("OCc1csc(-c2ccc(C(F)(F)F)cc2)n1")
1.21
>>> observed_value("O=C(O)c1ccc(-c2ccsc2)cc1")
1.35
>>> observed_value("Nc1ccc2oc3c(c2c1)CCCC3")
1.11

Query: Give log reduction at 1000 µM (M. tuberculosis H37Rv) of the following compound: "Cc1oc(-c2ccc(Cl)cc2)cc1C(=O)N(C)C"
Reply: 1.44

* * *

Test system: M. bovis BCG Pasteur
Procedure Summary: microbe, parasite or virus in culture
Format: cell-based
Test Settings: Mycobacterium tuberculosis variant bovis BCG, BCG, read-out: Antibacterial activity (MIC50) M. bovis BCG
Checkbox rule: MIC50 lower than 300 µM = 1; MIC50 not lower than 300 µM = 0.

>>> group_label("Cc1cc(C(=O)O)c(C)n1Cc1cccs1 [Fragment F16]")
0
>>> group_label("Cc1ccc(-c2cc(C(=O)O)c(C)o2)cc1 [Fragment F24]")
1
>>> group_label("N#Cc1ccc(O)cc1F [Fragment F22, 2-Fluoro-4-hydroxybenzonitrile]")
0
>>> group_label("Nc1ccc2oc3c(c2c1)CCCC3 [Fragment F5]")
0
>>> group_label("O=C(O)c1ccc(-c2ccsc2)cc1 [Fragment F26, 4-(3-Thienyl)benzoic acid]")
0

Query: Is 300 µM strictly greater than the compound's reported MIC50? compound: O=c1cc(C(F)(F)F)c2ccc(O)cc2o1 [Fragment F2]
Reply: 0

Query: Is 300 µM strictly greater than the compound's reported MIC50? compound: O=C(O)c1cc2ccccc2cn1 [Fragment F14, Isoquinoline-3-carboxylic acid]
Reply: 1

Query: Is 300 µM strictly greater than the compound's reported MIC50? compound: Cc1n[nH]c(C)c1Oc1ccc(Cl)cc1 [Fragment F15]
Reply: 1

Query: Is 300 µM strictly greater than the compound's reported MIC50? compound: COC(=O)c1sc2ccccc2c1O [Fragment F9]
Reply: 0
